target: Transient receptor potential cation channel subfamily V member 1 (Homo sapiens, UniProt Q8NER1); test: Agonist activity at human TRPV1 receptor expressed in HEK293 cells assessed as increase in intracellular Ca2+ concentration by spectrofluorimetric analysis relative to ionomycin; type: cell-based
Sequence (Q8NER1 whole entry): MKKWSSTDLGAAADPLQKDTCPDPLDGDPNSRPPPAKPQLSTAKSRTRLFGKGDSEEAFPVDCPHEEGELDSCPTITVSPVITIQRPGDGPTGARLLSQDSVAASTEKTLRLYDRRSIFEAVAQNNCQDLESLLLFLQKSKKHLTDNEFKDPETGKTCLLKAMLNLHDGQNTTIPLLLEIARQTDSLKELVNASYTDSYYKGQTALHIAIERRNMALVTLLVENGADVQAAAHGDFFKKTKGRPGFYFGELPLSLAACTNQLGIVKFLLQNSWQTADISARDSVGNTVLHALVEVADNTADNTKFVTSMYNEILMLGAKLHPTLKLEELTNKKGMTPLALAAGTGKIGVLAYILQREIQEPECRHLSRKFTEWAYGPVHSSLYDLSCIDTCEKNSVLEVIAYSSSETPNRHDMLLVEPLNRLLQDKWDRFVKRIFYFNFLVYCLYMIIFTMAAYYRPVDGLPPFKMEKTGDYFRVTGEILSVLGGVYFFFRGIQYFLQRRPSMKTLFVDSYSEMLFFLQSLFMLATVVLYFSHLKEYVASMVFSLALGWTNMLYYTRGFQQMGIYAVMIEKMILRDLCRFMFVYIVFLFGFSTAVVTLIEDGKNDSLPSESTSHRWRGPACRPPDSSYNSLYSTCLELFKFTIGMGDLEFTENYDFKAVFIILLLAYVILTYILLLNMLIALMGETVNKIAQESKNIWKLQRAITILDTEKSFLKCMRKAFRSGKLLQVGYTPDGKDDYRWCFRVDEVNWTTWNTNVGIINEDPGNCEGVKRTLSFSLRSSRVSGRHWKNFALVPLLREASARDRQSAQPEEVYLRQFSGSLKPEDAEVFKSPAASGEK
Listed here: items and their measured Efficacy.

[
  {
    "smilesRecord": "Cc1ccccc1-c1ccc(Cc2nnnn2C(=O)N(C)C)cc1",
    "comparisonSign": "<",
    "Efficacy (%)": 10
  },
  {
    "smilesRecord": "CN(C(=O)n1nnc(Cc2ccc(-c3ccccc3)cc2)n1)C1CCCCC1",
    "comparisonSign": "=",
    "Efficacy (%)": 33.6
  },
  {
    "smilesRecord": "CN(C)C(=O)n1nnc(Cc2ccc(-c3ccc(CO)cc3)cc2)n1",
    "comparisonSign": "<",
    "Efficacy (%)": 10
  },
  {
    "smilesRecord": "CC(=O)c1cccc(-c2ccc(Cc3nnn(C(=O)N(C)C)n3)cc2)c1",
    "comparisonSign": "<",
    "Efficacy (%)": 10
  },
  {
    "smilesRecord": "O=C(N1CCCCC1)n1nnc(Cc2ccc(-c3ccccc3)cc2)n1",
    "comparisonSign": "=",
    "Efficacy (%)": 66.7
  },
  {
    "smilesRecord": "CN(C)C(=O)n1nnc(Cc2ccc(-c3cccc(C(N)=O)c3)cc2)n1",
    "comparisonSign": "<",
    "Efficacy (%)": 10
  },
  {
    "smilesRecord": "CC(=O)c1cccc(-c2ccc(Cc3nnnn3C(=O)N(C)C)cc2)c1",
    "comparisonSign": "<",
    "Efficacy (%)": 10
  },
  {
    "smilesRecord": "CN(CCCCc1ccccc1)C(=O)n1nnc(Cc2ccc(-c3ccccc3)cc2)n1",
    "comparisonSign": "=",
    "Efficacy (%)": 15.9
  },
  {
    "smilesRecord": "CN(Cc1ccc2ccccc2c1)C(=O)n1nnc(Cc2ccc(-c3ccccc3)cc2)n1",
    "comparisonSign": "=",
    "Efficacy (%)": 36.1
  }
]
